targetOrTestSystem: T1, human CD3 on T cells (Jurkat cells; human peripheral blood CD4+ and CD8+ T-cells) (human, UniProt P07766 23-207)
T1 construct: whole, on cells; also called CD4T; CD4 + T
procedureDetails: flow cytometry on Jurkat cells
Consider the following binders; for each one, report its affinity (FACS).
Only the number, expressed in nM, is required.

I'd like to know its affinity (FACS). The binder in question is aCD3-hVH9/VL2 (antibody, human IgG4, V domains shown, also called humanized anti-CD3 antibody hVH9/VL2) VH: EVQLVESGGGLVQPGGSLRLSCAASGFTFNTYAMNWVRKAPGKGLEWVGRIRSKYNNYATYYADSVKDRFTISRDDSKNSLYLQMNSLKTEDTAVYYCVRHGNFGNSYVSWFAYWGQGTLVTVSS VL: QAVVTQEPSLTVSPGGTVTLTCRSSTGAVTTSNYANWVQEKPGQAPRGLIGGTNKRAPWTPARFSGSLLGGKAALTLSGAQPEDEAEYYCALWYSNLWVFGGGTKLTVL 25

I'd like to know its affinity (FACS). The binder in question is aCD3-hVH1/VL5 (antibody, human IgG4, V domains shown, also called humanized anti-CD3 antibody hVH1/VL5) VH: EVQLVESGGGLVQPGGSLRLSCAASGFTFNTYAMNWVRQAPGKGLEWVSRIRSKYNNYATYYADSVKDRFTISRDDSKNTLYLQMNSLRAEDTAVYYCVRHGNFGNSYVSWFAYWGQGTLVTVSS VL: QAVVTQEPSLTVSPGGTVTLTCRSSTGAVTTSNYANWVQEKPGQAPRGLIGGTNKRAPWTPARFSGSLLGGKAALTITGAQAEDEAEYYCVLWYSNLWVFGGGTKLTVL 10

I'd like to know its affinity (FACS). The binder in question is aCD3-hVH8/VL1 (antibody, human IgG4, V domains shown, also called humanized anti-CD3 antibody hVH8/VL1) VH: EVQLVESGGGLVQPGGSLRLSCAASGFTFNTYAMNWVRKAPGKGLEWVGRIRSKYNNYATYYADSVKDRFTISRDDSKNSLYLQMNSLKTEDTAVYYCARHGNFGNSYVSWFAYWGQGTLVTVSS VL: QAVVTQEPSLTVSPGGTVTLTCRSSTGAVTTSNYANWVQQKPGQAPRGLIGGTNKRAPWTPARFSGSLLGGKAALTLSGAQPEDEAEYYCALWYSNLWVFGGGTKLTVL 15

I'd like to know its affinity (FACS). The binder in question is aCD3-hVH9/VL5 (antibody, human IgG4, V domains shown, also called humanized anti-CD3 antibody hVH9/VL5) VH: EVQLVESGGGLVQPGGSLRLSCAASGFTFNTYAMNWVRKAPGKGLEWVGRIRSKYNNYATYYADSVKDRFTISRDDSKNSLYLQMNSLKTEDTAVYYCVRHGNFGNSYVSWFAYWGQGTLVTVSS VL: QAVVTQEPSLTVSPGGTVTLTCRSSTGAVTTSNYANWVQEKPGQAPRGLIGGTNKRAPWTPARFSGSLLGGKAALTITGAQAEDEAEYYCVLWYSNLWVFGGGTKLTVL 20
